These data points were gathered from patent US9902728B2.

subject of test: USP7 (Homo sapiens, UniProt Q93009)
Construct: USP7, construct USP7 (208-1102) 6*His, Viva Biotech; 6xHis (C); purchased Viva Biotech
Sequence (Q93009 208-1102): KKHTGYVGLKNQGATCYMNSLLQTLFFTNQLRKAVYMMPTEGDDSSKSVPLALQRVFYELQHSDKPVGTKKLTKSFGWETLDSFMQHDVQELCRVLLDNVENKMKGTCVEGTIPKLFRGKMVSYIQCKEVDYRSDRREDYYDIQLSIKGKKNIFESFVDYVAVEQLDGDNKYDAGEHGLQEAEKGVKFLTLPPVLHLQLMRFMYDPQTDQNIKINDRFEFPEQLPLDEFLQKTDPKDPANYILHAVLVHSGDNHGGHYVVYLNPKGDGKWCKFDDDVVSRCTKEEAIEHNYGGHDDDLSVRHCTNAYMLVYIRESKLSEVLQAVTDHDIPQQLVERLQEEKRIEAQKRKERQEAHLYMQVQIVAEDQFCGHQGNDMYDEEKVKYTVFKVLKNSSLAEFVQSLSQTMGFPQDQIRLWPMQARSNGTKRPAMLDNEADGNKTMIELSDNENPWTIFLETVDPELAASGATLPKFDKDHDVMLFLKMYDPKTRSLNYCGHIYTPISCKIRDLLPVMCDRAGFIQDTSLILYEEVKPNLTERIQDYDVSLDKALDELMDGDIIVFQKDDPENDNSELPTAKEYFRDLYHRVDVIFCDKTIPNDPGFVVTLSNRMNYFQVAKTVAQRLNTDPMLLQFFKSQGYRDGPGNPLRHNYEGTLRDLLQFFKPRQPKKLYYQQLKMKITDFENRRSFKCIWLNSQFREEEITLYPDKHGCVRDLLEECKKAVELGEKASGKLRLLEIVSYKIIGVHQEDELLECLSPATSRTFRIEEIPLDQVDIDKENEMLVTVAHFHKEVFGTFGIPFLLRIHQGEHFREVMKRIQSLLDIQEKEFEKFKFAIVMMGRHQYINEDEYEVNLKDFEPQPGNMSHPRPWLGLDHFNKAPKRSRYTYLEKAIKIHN
test description: USP7 Assay A (Ubitquin-Rhodamine 110 Assay)
Type: biochemical
run parameters: USP7 activity in USP7 assay A and B (table does not say which assay per compound); read-out: USP7_IC50
Could you please report measured IC50 for the items listed next?

- compound: "O=C(c1cnn(C2CC2)c1)N1CCC(O)(Cn2cnc3c(cnn3-c3ccc(Cl)cc3)c2=O)CC1"
  subject of test: "USP7 (Homo sapiens, UniProt Q93009)"
  IC50: "0.2 to 1 µM"
- compound: "O=C(C1CC1)N1CCC(O)(Cn2cnc3c(cnn3-c3ccc(-c4ccc(N5CC[C@@H](O)C5)nc4)cc3)c2=O)CC1"
  subject of test: "USP7 (Homo sapiens, UniProt Q93009)"
  IC50: "0.2 to 1 µM"
- compound: "Cn1ccc(NC2CCC(C(=O)N3CCC(O)(Cn4cnc5c(cnn5-c5ccc(F)cc5)c4=O)CC3)CC2)n1 (stereo not drawn) [Compound I-766]"
  subject of test: "USP7 (Homo sapiens, UniProt Q93009)"
  IC50: "0.2 to 1 µM"
- compound: "CC1(C(=O)N2CCC(O)(Cn3cnc4c(cnn4-c4ccc(F)cc4)c3=O)CC2)CCC(Oc2ccccn2)CC1 (stereo not drawn) [Compound I-746]"
  subject of test: "USP7 (Homo sapiens, UniProt Q93009)"
  IC50: "1 to 10 µM"
- compound: "CC1(C(=O)N2CCC(O)(Cn3cnc4c(cnn4-c4ccc(OCC5(F)CCC5)cc4)c3=O)CC2)CC1"
  subject of test: "USP7 (Homo sapiens, UniProt Q93009)"
  IC50: "< 0.2 µM"
- compound: "C[C@H](c1ccccc1)c1nn(C)cc1C(=O)N1CCC(O)(Cn2cnc3c(cnn3-c3ccc(F)cc3)c2=O)CC1"
  subject of test: "USP7 (Homo sapiens, UniProt Q93009)"
  IC50: "< 0.2 µM"

Hello, I would appreciate it if you could give IC50 for each entry below.
1. O=C(c1cnc(C2CC2)o1)N1CCC(O)(Cn2cnc3c(cnn3-c3ccc(-c4cccnc4)cc3)c2=O)CC1
2. O=C(C[C@H](C(F)F)n1cccn1)N1CCC(O)(Cn2cnc3c(cnn3-c3ccc(CN4CCC4)cc3)c2=O)CC1
3. O=C(c1ccc(-c2cnn3c2NCCC3)cc1)N1CCC(O)(Cn2cnc3c(cnn3-c3ccc(F)cc3)c2=O)CC1

Output:
["0.2 to 1 µM", "< 0.2 µM", "0.2 to 1 µM"]

Record IC50 for all entries; do not skip any.
1. O=C(C1CCC(Oc2ccncc2)CC1)N1CCC(O)(Cn2cnc3c(cnn3-c3ccc(F)cc3)c2=O)CC1 (stereo not drawn) [Compound I-752]
2. O=C(c1cnc(C2CC2)o1)N1CCC(O)(Cn2cnc3c(cnn3-c3ccc(OCC4(F)CCC4)cc3)c2=O)CC1
3. C=CC(=O)N1CCC1C(=O)N1CCC(O)(Cn2cnc3c(cnn3-c3cccc(N4CCN(C)CC4)c3)c2=O)CC1 (stereo not drawn)
4. O=C(C[C@@H](C(F)F)n1ccc(F)n1)N1CCC(O)(Cn2cnc3c(ccn3-c3ccc(F)cc3)c2=O)CC1

Output:
1: < 0.2 µM; 2: < 0.2 µM; 3: < 0.2 µM; 4: < 0.2 µM

Field: IC50. Fill in for each record below.
1. COCCN1CCN(c2cccc(-n3ncc4c(=O)n(CC5(O)CCN(C(=O)C6(C)CC6)CC5)cnc43)c2)CC1
2. O=C(C1CC1)N1CCC(O)(Cn2cnc3c(cnn3-c3ccc(N4CCC5(CC4)CC(CO)C5)cc3)c2=O)CC1
3. Cc1ncc(C(=O)N2CCC(O)(Cn3cnc4c(ccn4-c4ccc(F)cc4)c3=O)CC2)o1
4. O=C(c1cnc(C2CC2)o1)N1CCC(O)(Cn2cnc3c(cnn3-c3ccc(N4CCC(F)(F)CC4)cc3)c2=O)CC1
5. O=C(c1cnc(C2CC2)o1)N1CCC(O)(Cn2cnc3c(cnn3-c3ccc(-n4cc(C(F)(F)F)cn4)cc3)c2=O)CC1
6. O=C(C[C@@H](C(F)F)n1ccc(Cl)n1)N1CCC(O)(Cn2cnc3c(cnn3-c3ccc(F)cc3)c2=O)CC1

Output:
0.2 to 1 µM
0.2 to 1 µM
0.2 to 1 µM
0.2 to 1 µM
< 0.2 µM
1 to 10 µM

Each of the following entries comes with a recorded value; kindly state IC50 for each.
1. O=C(C[C@H](C(F)F)n1ccc(F)n1)N1CCC(O)(Cn2cnc3c(cnn3-c3ccc(Cl)cc3)c2=O)CC1
2. O=C(C1CCC(Oc2ccc(F)cn2)CC1)N1CCC(O)(Cn2cnc3c(cnn3-c3ccccc3)c2=O)CC1 (stereo not drawn) [Compound I-744]
3. O=C(C1CC1)N1CCC(O)(Cn2cnc3c(cnn3-c3ccc(N4CCC(O)C4)cc3)c2=O)CC1 (stereo not drawn)
4. O=C(c1cnc(C2CC2)o1)N1CCC(O)(Cn2cnc3c(cnn3-c3ccc(OC4CCC(F)(F)CC4)cc3)c2=O)CC1

Output:
1. 1 to 10 µM
2. 0.2 to 1 µM
3. 1 to 10 µM
4. < 0.2 µM
